- measurement_protocol: Cytotoxicity against dog MDCK cells assessed as reduction in cell viability incubated for 48 hrs by celltiter-glo assay
- Assay type: toxicity, cell-based, Canis lupus familiaris
result_type: CC50 at 48 h

Below, each entry is followed by its recorded CC50 at 48 h result.
CC1(C)CC[C@]2(C(=O)O)CC[C@]3(C)C(=CC[C@@H]4[C@@]5(C)CC[C@H](O)C(C)(C)[C@@H]5CC[C@]43C)[C@@H]2C1
> 100 µM
CCOC(=O)C1=C[C@@H](OC(CC)CC)[C@H](NC(C)=O)[C@@H](N)C1.O=P(O)(O)O [OSELTAMIVIR PHOSPHATE]
> 100 µM

Request: Any idea what its CC50 at 48 h is? The compound is O=C1c2c(O)c(=O)ccn2N([C@@H]2c3ccccc3SCc3c2ccc(F)c3F)[C@@H]2COCCN12
Response: 9.56 µM
